Assay: folding stability dG unfold from chymotrypsin proteolysis; higher = more stable
Param threshold (0.5 kcal/mol) applies to folding stability dG unfold; output rule met when value >= threshold, rule not met when value < threshold.

{"chain": "GSLVTVFPFPENGKTVEVVVPESVGTPLSEAEIRALLLEAHPDVPAAALPAEEAAEILQATPGVEAARVVAS [r1_463_JUSTAS]", "assigned_label": "rule not met"}
{"chain": "SMTLPANAKAKVTVLVLFYDPETGEATLVKVDYTATFKPDDKGNLVVEVEPSKIEFIGPISLEEAKKIAGSA [r9_423_TrMRF]", "assigned_label": "rule met"}
{"chain": "SAGGSAGGSAGKIWIYNPENGWIFEISIQPHPMPNDDGEPQWMFSIDVEVYPPGKPGQPISAGGSAGGSAGG [r11_531_TrROS]", "assigned_label": "rule met"}
{"chain": "SAPVRTVTLNVPVERDAAGNLVPVSPEEIVAELEKEGYPREEIEVKNVTETTIPVTIEVDLVNGKMRVLGSA [r9_225_JUSTAS]", "assigned_label": "rule not met"}
{"chain": "SAGGSAGGDAKTFEVEGMTVFVDPETGLAVAEFPDGYLALGRIEVFGPGVAKVDLEIFPLPPGLSAGGSAGG [r6_670_TrMRF]", "assigned_label": "rule met"}
{"chain": "SAGEYVLVEVERGGKVETFVLPPELAKELLEKYSPDSEIPVKLEGREVRLRVLPIKPKEPTPEELAKAASAG [r5_669_TrMRF]", "assigned_label": "rule met"}
{"chain": "SAGGMSPDQIWKAKLLSRKKGKNGSVYNIVIYNPDNPKPIFINKPGDNPEDVLKELEELVKKGPIDLESAGG [r13_286_TrMRF]", "assigned_label": "rule met"}

----------
Collected folding stability dG unfold values appear next to each entry.
Test: folding stability dG unfold from trypsin proteolysis; higher = more stable

{"chain": "SMPKIEVKIEYDEETGEITVEIRVPETEEEALEALRKLAEEAGLEVEVEEVEIEEVDGELVIRVKVRIKPSA [r9_164_TrROS_Hall]", "unit_symbol": "kcal/mol", "folding stability dG unfold": 3.57}
{"chain": "SAGGSAGGSGSMTTTTDPNSDITVSSIGSPSGPPVTATLNPKTGTVTVTVGGTPVTIPLDALSSAGGSAGGS [r12_650_JUSTAS]", "unit_symbol": "kcal/mol", "folding stability dG unfold": 0.331}
{"chain": "SAGGSAGGSAGGGLGYRTLTGRVEFELNITYLTEDGSPATLNLRFELELRFVVPVPPDYPSAGGSAGGSAGG [r7_926_TrMRF]", "unit_symbol": "kcal/mol", "folding stability dG unfold": 3.7}
{"chain": "SKPDPVKIEIEQERNPNGQPQHTIKIQDKGKDRKFPIHNMSIDEFDPDDPYIKIRSPGNGQSHTIPPDDLSA [r9_1186_TrROS]", "unit_symbol": "kcal/mol", "folding stability dG unfold": -0.0606}

----------
Assay: folding stability dG unfold from chymotrypsin proteolysis; higher = more stable
Collected folding stability dG unfold values appear next to each entry.
outcome_measure: folding stability dG unfold

{"chain": "MYLVRIKIEYKTEDGEKVEKEITLLVEPSEEEAKEKAEELARKIAEELGLSEEEIKKIEVEVVKLGEELEES [r1_159_TrROS_Hall]", "outcome_measure": "folding stability dG unfold", "result": "4.37 kcal/mol"}
{"chain": "SAGGSAGGSAGTATLELTVGGKKATATVEPDPDSPAPVVTVKVGDKPVVLNPDGTWTPADSAGGSAGGSAGG [r11_732_TrMRF]", "outcome_measure": "folding stability dG unfold", "result": "-0.908 kcal/mol"}
{"chain": "SAGGSAGGSAGMNITITFPDGTVVEIPDVPPEYADVTPEKLKEEVLKKYPNVNVKVSPNGSAGGSAGGSAGG [r17_42_JUSTAS]", "outcome_measure": "folding stability dG unfold", "result": "0.127 kcal/mol"}
{"chain": "SAGGSAGGSAGGPNPDMKFEIVTIKVPPDEVPKSEPIEDPDGHNFFLHFDGNTYTIWRMDSAGGSAGGSAGG [r7_97_TrROS]", "outcome_measure": "folding stability dG unfold", "result": "1.39 kcal/mol"}
{"chain": "SAGSITLVFKTPEELEEALKKLAEELGLSEEEVEALKKELEEKFTITYDEETGYVTITLKPELSEEELKSAG [r5_717_TrROS_Hall]", "outcome_measure": "folding stability dG unfold", "result": "3.71 kcal/mol"}
{"chain": "SAGGSAGGSAGMTFVITDKNGKETTISLEEAAKLLGIPVEEITEEELKEFLEKKVKTIEKISSAGGSAGGSA [r18_403_JUSTAS]", "outcome_measure": "folding stability dG unfold", "result": "2.6 kcal/mol"}
{"chain": "SAGGSAGGPVITFPWNDIPELLERARENGDPEYYIRVSPDDPGNFTIMPPEEAEENGMPVIPLDSAGGSAGG [r6_710_TrROS]", "outcome_measure": "folding stability dG unfold", "result": "-0.656 kcal/mol"}

----------
Test: folding stability dG unfold (combined trypsin and chymotrypsin); higher = more stable
outcome_measure: folding stability dG unfold

{"chain": "SKTVVIAADPNNPEAIKKAIEEAPPDTTIVIVVPLENGEYPKVTITRKPPEVPPIPPELLSEEEIKELLPSA [r9_1103_TrMRF]", "outcome_measure": "folding stability dG unfold", "result": "0.42 kcal/mol"}
{"chain": "SAGGSLKDMPVEDLAKYFARKMGYPITDVKVERNPDPPWIKINIEMEHPNDGRRHPHEIWIPKDDISAGGSA [r2_156_TrROS]", "outcome_measure": "folding stability dG unfold", "result": "0.995 kcal/mol"}
{"chain": "SPAIVLATSDPSTRRRTVFVAQSHPPGPAVPDLGFDIPIGDNLYLGASISVSPSGPVNIDSIIVGPPDSLSA [r9_780_TrMRF]", "outcome_measure": "folding stability dG unfold", "result": "< -1 kcal/mol"}
{"chain": "SEAEEAARKLAEELGLEVEVVEVDEETGTVTVRVRFEDEPTVTITITFDEETGELTVTIEVRPPPPPPPESA [r9_1119_TrROS_Hall]", "outcome_measure": "folding stability dG unfold", "result": "3.72 kcal/mol"}
{"chain": "SAGGSAGGMKEGEEFEIELPDKYKVKIRVKDNIIEVEFPPGLRVRAEILENGEVKVYLPPELKPSAGGSAGG [r6_970_TrMRF]", "outcome_measure": "folding stability dG unfold", "result": "1.7 kcal/mol"}
{"chain": "SAGGSAGGMPVEVTETPVGTFPDGSTVTRTETVLPGGEVLVETTVTYPDGSSTTTTRRVPPELASAGGSAGG [r6_263_JUSTAS]", "outcome_measure": "folding stability dG unfold", "result": "2.43 kcal/mol"}
{"chain": "SAGGMPKYFAEVDTEPHGDKVKITLRIRDPNGVERELTFELPLSEVIKLLKELPEEFEVFELKFSDESAGGS [r16_298_TrMRF]", "outcome_measure": "folding stability dG unfold", "result": "2.71 kcal/mol"}

----------
Test: folding stability dG unfold from trypsin proteolysis; higher = more stable

{"chain": "SAGGSAMFVVVEVESPEELRELVEEEDPSVFLLPTEDGEERLVVVDPENPENIRVIPLERPELLAPSAGGSA [r15_11_TrMRF]", "unit_symbol": "kcal/mol", "folding stability dG unfold": 0.535}
{"chain": "SAGGSMTITYDPETNTVTILDPNIPPNEPRPVTLTLPDGEKYTLTLRPVPGNGWTGTLTWKSTKDGSAGGSA [r2_89_TrMRF]", "unit_symbol": "kcal/mol", "folding stability dG unfold": 0.911}
{"chain": "SVVNFPVSLAATRDGNPVPIEEVLERVAKEIGGPDVKPEIKPGPGDTLVATVKLPDGTTATASDSSSVTDAS [r1_168_JUSTAS]", "unit_symbol": "kcal/mol", "folding stability dG unfold": -0.293}
{"chain": "SAGGSAGGSIVFRSPEQAKEWLDNFPPGNEVNIHVQGPDTGQPQEFEIKIPPPKPEYDPDGKPSAGGSAGGS [r12_393_TrROS]", "unit_symbol": "kcal/mol", "folding stability dG unfold": -0.124}
{"chain": "SAGGGSYTIVVELGDKKVVFEIDKEEAVEEAVAKLPELGLEVEVLKKEKVLNEDGKPSVLVEVKVKPSAGGS [r8_336_TrMRF]", "unit_symbol": "kcal/mol", "folding stability dG unfold": -0.663}
{"chain": "SAGGSAKKTIKITIEVDGKTIEITKITVNENGEVTIEVKITNKNGKETKTIKITMTVEELKALLKSSAGGSA [r15_56_TrROS_Hall]", "unit_symbol": "kcal/mol", "folding stability dG unfold": 1.63}
{"chain": "SAGGSSIKIPNPNGYEIEIEVTPDRAKIKWRMPGKEQEQEFPPGEDVTIRFPDGMPLTIKIPPPGESAGGSA [r2_57_TrROS]", "unit_symbol": "kcal/mol", "folding stability dG unfold": 0.456}
